inhibition by entry:
test_system: Pantothenate synthetase (Mycobacterium tuberculosis (strain ATCC 25618 / H37Rv)) (UniProt P9WIL5)
Sequence (P9WIL5 whole entry, looked up): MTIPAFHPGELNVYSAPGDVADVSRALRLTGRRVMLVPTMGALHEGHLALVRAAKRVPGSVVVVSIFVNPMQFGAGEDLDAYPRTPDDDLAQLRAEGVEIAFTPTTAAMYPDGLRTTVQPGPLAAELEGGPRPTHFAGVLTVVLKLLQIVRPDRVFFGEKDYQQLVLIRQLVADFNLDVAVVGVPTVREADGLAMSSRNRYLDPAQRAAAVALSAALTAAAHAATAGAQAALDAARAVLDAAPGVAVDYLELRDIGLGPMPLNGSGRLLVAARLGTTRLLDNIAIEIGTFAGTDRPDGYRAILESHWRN
test_method_notes: Coupled enzyme confirmation of inhibitors against recombinant Mtb PanC (AID 375);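 also: 0% = full reaction with vehicle and 100% = no enzyme background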
applied_conditions: coupled enzyme assay; at 10 µM, active compounds read high

- compound: "COC(=O)c1sccc1NC(=O)c1ccncc1"
  inhibition [%]: 6
- compound: "Cc1cc(N2CCOCC2)nc2ccc(NC(=O)C3CCC(C)CC3)cc12 (stereo not drawn)"
  inhibition [%]: 0
- compound: "CCCCCCn1c(O)c(C=NC2CCN(Cc3ccccc3)CC2)c(=O)[nH]c1=O"
  inhibition [%]: 0
- compound: "CC1(C)S[C@@H]2[C@H](NC(=O)Cc3ccccc3)C(=O)N2[C@H]1C(=O)O"
  inhibition [%]: 6
- compound: "O=C(CCCN1CCC(O)(c2ccc(Cl)cc2)CC1)c1ccc(F)cc1"
  inhibition [%]: 0
- compound: "CCn1c(C)cc(=S)c2ccccc21"
  inhibition [%]: 9
- compound: "CCCCN1CN(S(=O)(=O)c2cccs2)c2nc3ccccc3nc21"
  inhibition [%]: 0
- compound: "CCOC(=O)C1=C(N)OC(C)=C(C(=O)OCCOC)C12C(=O)Nc1ccccc12 (stereo not drawn)"
  inhibition [%]: 5
- compound: "CN1CCc2c(sc3c2c(=O)n(-c2ccccc2)c2nnc(SCc4ccc(F)cc4)n32)C1"
  inhibition [%]: 0
- compound: "O=C(CSc1ncnc2c1cnn2Cc1ccccc1)Nc1ccc2c(c1)OCCO2"
  inhibition [%]: 5
- compound: "O=C(NS(=O)(=O)c1ccc(NC(=O)C2CCCO2)cc1)c1ccccc1 (stereo not drawn)"
  inhibition [%]: 0
- compound: "CCOC(=O)/C=C1\\SCC(=O)N1Cc1ccc(Br)cc1"
  inhibition [%]: 0
- compound: "CCOC(=O)c1cccnc1SCC(=O)NC(C)CC (stereo not drawn)"
  inhibition [%]: 0
- compound: "O=C(Nc1ccccc1N1CCOCC1)c1ccc2ccccc2n1"
  inhibition [%]: 0
- compound: "CN1CC[n+]2cnc3ccccc3c21"
  inhibition [%]: 1
- compound: "O=C(c1cccnc1)N1CCc2ccccc21"
  inhibition [%]: 3
- compound: "CCn1c(SCC(=O)NCCc2ccc(Cl)cc2)nnc1-c1cccs1"
  inhibition [%]: 1
- compound: "CC(C)(C)NCc1cc2ccccc2[nH]c1=O"
  inhibition [%]: 0
- compound: "Cc1c(OCC(F)(F)F)ccnc1CS(=O)c1nc2ccccc2[nH]1 (stereo not drawn)"
  inhibition [%]: 6
- compound: "CCOC(=O)c1c(C)n(C)c2ccc(O)c(S(=O)(=O)c3ccccc3)c12"
  inhibition [%]: 9
- compound: "CC1(C)Cc2c(sc3c2c(=N)n(Cc2ccco2)c(=O)n3Cc2ccccc2)CO1"
  inhibition [%]: 0
- compound: "C=CCOc1ccc(/C(O)=C2\\C(=O)C(=O)N(CCOC)C2c2cccnc2)cc1 (stereo not drawn)"
  inhibition [%]: 0
- compound: "COc1cccc(-c2nc(CS(=O)CC(=O)NCCCOC(C)C)c(C)o2)c1 (stereo not drawn)"
  inhibition [%]: 2
